Biological target: Recombinant purified human BTK (Homo sapiens)
Sequence (Q06187 whole entry): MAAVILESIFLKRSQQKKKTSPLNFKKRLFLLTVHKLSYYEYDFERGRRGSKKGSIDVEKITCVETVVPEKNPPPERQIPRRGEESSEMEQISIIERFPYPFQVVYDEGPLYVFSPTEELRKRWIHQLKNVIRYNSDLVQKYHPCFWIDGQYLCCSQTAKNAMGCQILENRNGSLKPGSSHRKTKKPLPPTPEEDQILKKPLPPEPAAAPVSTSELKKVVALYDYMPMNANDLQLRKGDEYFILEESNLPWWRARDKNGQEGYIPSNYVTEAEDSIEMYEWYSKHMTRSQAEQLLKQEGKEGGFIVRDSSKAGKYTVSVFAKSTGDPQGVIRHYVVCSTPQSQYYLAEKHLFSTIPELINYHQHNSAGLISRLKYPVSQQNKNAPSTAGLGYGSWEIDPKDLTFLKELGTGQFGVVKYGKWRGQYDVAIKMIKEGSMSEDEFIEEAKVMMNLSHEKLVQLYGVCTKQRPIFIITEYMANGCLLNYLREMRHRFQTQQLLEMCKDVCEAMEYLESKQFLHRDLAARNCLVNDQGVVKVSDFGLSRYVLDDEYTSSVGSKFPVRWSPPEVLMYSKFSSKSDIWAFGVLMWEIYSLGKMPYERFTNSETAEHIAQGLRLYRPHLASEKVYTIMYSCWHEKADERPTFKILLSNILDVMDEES
Test: BTK kinase inhibitory activity, ADP-Glo kinase assay (Promega V9071)
Conditions: ATP 10 uM, 8 ng BTK per reaction, 1 hour 30 °C, chemiluminescence
Items are presented alongside their recorded IC50.
Respond with the bare value in nM.

The examples below pair each entry with its known result.
>  <STRUCTURE_SMILES>
C=CC(=O)N1CC[C@@H](C)[C@@H](Nc2nc(Nc3cnn(CC)c3)nc3[nH]ncc23)C1

>  <ASSAY_TARGET>
Recombinant purified human BTK (Homo sapiens)

>  <IC50 / nM>
1.8

$$$$
>  <STRUCTURE_SMILES>
C=CC(=O)N1CCC[C@@H](Nc2nc(Nc3cnn(CC(C)C)c3)nc3[nH]nc(C)c23)C1

>  <ASSAY_TARGET>
Recombinant purified human BTK (Homo sapiens)

>  <IC50 / nM>
1.6

$$$$

## Task // query IC50 value for entry CCn1cc(Nc2nc(N[C@@H]3CCCN(C(=O)/C(C#N)=C/C4CC4)C3)c3c(F)c[nH]c3n2)cn1
## Result 2.1

## Task Which measured IC50 value corresponds to CC(C)/C=C(\C#N)C(=O)N1CCC[C@@H](Nc2nc(Nc3cnn(C4CC4)c3)nc3[nH]nc(Cl)c23)C1 ?
## Result 4.8

## Task Bench note: what IC50 did N#C/C(=C\C1CC1)C(=O)N1CCC[C@@H](Oc2nc(Nc3cnn(C4CC4)c3)nc3[nH]nc(Cl)c23)C1 show?
## Result 2.5

## Task Look at this compound and give its reported IC50. C=CC(=O)N1CC[C@@H](C)[C@@H](Nc2nc(Nc3cnn(Cc4cccc(OC)c4)c3)nc3[nH]nc(Cl)c23)C1
## Result 8.2

## Task Form field: reported IC50 of C=CC(=O)N1CCC[C@@H](Nc2nc(Nc3cnn(CCN4CCOCC4)c3)nc3[nH]nc(Cl)c23)C1
## Result 1.8

## Task # get_value(readout='IC50', item= C=CC(=O)N1CCC[C@@H](Sc2nc(Nc3cnn(CCC)c3)nc3[nH]nc(Cl)c23)C1 )
## Result 2

## Task Record request: IC50 value, item C=CC(=O)N1CCC[C@@H](Nc2nc(Nc3cnn(C)c3)nc3[nH]ccc23)C1
## Result 19.2

## Task Would you kindly share the measured IC50 for C=CC(=O)N1CCC[C@@H](Nc2nc(Nc3ccc(N4CCOCC4)cc3)nc3[nH]cc(Cl)c23)C1 ?
## Result 1.7

## Task # query: IC50 of entry C=CC(=O)N1CCC[C@@H](Nc2nc(Nc3cnn(CCC)c3)nc3[nH]nc(Cl)c23)C1
## Result 1.8

## Task I have this compound here, CCn1cc(Nc2nc(S[C@@H]3CCCN(C(=O)/C(C#N)=C/C4CC4)C3)c3cc[nH]c3n2)cn1 , and I need its recorded IC50.
## Result 6

## Task Give its IC50 value. Item: CCn1cc(Nc2nc(N[C@@H]3CCCN(C(=O)/C(C#N)=C/C4CC4)C3)c3cn[nH]c3n2)cn1
## Result 1.4

## Task Bench note: what IC50 did C=CC(=O)N1CC[C@@H](C)[C@@H](Nc2nc(Nc3cnn(CC(F)F)c3)nc3[nH]nc(SC)c23)C1 show?
## Result 1.6

## Task Can you look up the measured IC50 of CCn1cc(Nc2nc(S[C@@H]3CCCN(C(=O)/C(C#N)=C/C4CC4)C3)c3cn[nH]c3n2)cn1 for me?
## Result 3

## Task Which IC50 value belongs to C=CC(=O)N1CCC[C@@H](Nc2nc(Nc3cnn(CCN(CC)CC)c3)nc3[nH]nc(Cl)c23)C1 ?
## Result 1.8

## Task May I ask what IC50 has been recorded for C=CC(=O)N1CCC[C@@H](Sc2nc(Nc3cnn(C4CC4)c3)nc3[nH]nc(Cl)c23)C1 ?
## Result 1.4
